A compilation of pKi values for Adenosine receptor A1 (Homo sapiens, UniProt P30542) from the published literature.
pKi: −log10 of the molar value.
Would you please tag the item T when its pKi is 6 or above, and F when it is below?

The following compounds have reported results that may help.
- Structure notation: "Nc1nc(C(=O)NCc2cccc3cccnc23)c2cccc(-c3cncnc3)c2n1"
  Class: "F"
- Structure notation: "CN1CCN(c2nc(-c3cc(Cl)ccc3Cl)nc3[nH]cnc23)CC1"
  Class: "F"
- Structure notation: "Cc1cn2c(nc3c2c(=O)n(CCO)c(=O)n3Cc2ccccc2)[nH]1"
  Class: "F"
- Structure notation: "CCOC(=O)N1Cc2nc(-c3ccccc3)nn2-c2ccccc21"
  Class: "F"

Query: State whether the measured pKi reaches 6, counting equality as reaching it, for CCCCc1nc2[nH]cnc2c2nc(-c3ccc(C(F)(F)F)cc3)nn12
Response: F

Query: Please check the record COc1cc(-c2nc3c([nH]2)C2=N[C@@H](C)CN2C(=O)N3Cc2ccccc2)n(C)n1 and state if its pKi is at or above 6.
Response: F

Query: Assess whether reported pKi for CCCn1c(=O)c2[nH]c(-c3cnn(Cc4noc(-c5ccccc5Cl)n4)c3)nc2n(CCC)c1=O sits at 6 or higher.
Response: T

Query: Assess whether reported pKi for O=c1c2ncn3nc(-c4ccsc4)cc3c2c(-c2ccc(F)cc2)nn1Cc1ccccc1 sits at 6 or higher.
Response: T

###

Let's look at some log10 Ki data for Adenosine receptor A1 (Homo sapiens) that I collected from the literature.
On a log10 scale: recorded Ki, unit µM.

- Structure notation: "COc1cc(-c2cn3c(=O)n(-c4ccccc4)nc3c(N)n2)cc(OC)c1OC"
  Measurement kind: "log10 Ki"
  Val: -1.26

Parameter requested: log10 Ki. Apply to each item below.
1. N#Cc1c(N)nc(SCc2csc(-c3ccc(Cl)cc3)n2)nc1-c1ccc(OC(F)(F)F)cc1
2. CCNC(=O)[C@H]1O[C@@H](n2cnc3c(NNC(=O)c4ccc(Br)o4)ncnc32)[C@H](O)[C@@H]1O
3. Cc1cc(C)cc(-c2nc(NC(=O)c3cccnc3)sc2-c2ccncc2)c1
4. Nc1nc(-c2ccco2)nc2cn(Cc3ccccc3O)nc12
5. CCOc1ccc(-c2c(C#N)c(N)nc(SCC(=O)NC)c2C#N)cc1
6. O=C(Nc1nc(-c2cccs2)nc2cn(-c3ccccc3)nc12)c1cccs1

Response:
1. -0.73
2. -0.11
3. -0.79
4. -0.62
5. -0.98
6. -0.33

###

Collected Ki for the protein given by its sequence across several studies; molecules listed below.
Protein target, amino acids: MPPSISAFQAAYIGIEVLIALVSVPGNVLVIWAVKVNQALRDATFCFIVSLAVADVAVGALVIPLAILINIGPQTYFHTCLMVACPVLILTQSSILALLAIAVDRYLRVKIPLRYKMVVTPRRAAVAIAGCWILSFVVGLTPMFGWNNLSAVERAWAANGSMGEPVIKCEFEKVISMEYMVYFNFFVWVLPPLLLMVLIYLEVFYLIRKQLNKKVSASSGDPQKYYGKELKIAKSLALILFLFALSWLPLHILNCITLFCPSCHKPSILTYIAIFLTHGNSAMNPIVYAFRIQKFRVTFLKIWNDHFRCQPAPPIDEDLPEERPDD
One number for each entry, in nM.

Here are 8 molecules together with their reported answers.
- Molecule: "CC(=O)Nc1nc2ccccc2s1"
  Units of measure: "nM"
  Ki: 11000
- Molecule: "CN(C)c1nc(-c2cc3ccccc3s2)c2sccc2n1"
  Units of measure: "nM"
  Ki: 1260
- Molecule: "CCC(CC)C(=O)Nc1nc(-c2ccccc2)c(C#N)c(-c2ccccc2)n1"
  Units of measure: "nM"
  Ki: 6.4
- Molecule: "N#Cc1c(N)nc(SCCO)c(C#N)c1-c1ccc(F)cc1"
  Units of measure: "nM"
  Ki: 81
- Molecule: "CCN(C(C)=O)c1ccc(OC)c2nc(NC(=O)[C@H]3CC[C@@H](NC(=O)c4cccc(C(F)(F)F)c4)CC3)sc12"
  Units of measure: "nM"
  Ki: 20
- Molecule: "CCCn1c(=O)c2nc(-c3cnn(Cc4cccc(OC)c4)c3)[nH]c2n(CCC)c1=O"
  Units of measure: "nM"
  Ki: 34
- Molecule: "CCCCC(CC)CNc1nc2nn(C)cc2c2nc(-c3ccco3)nn12 (stereo not given)"
  Units of measure: "nM"
  Ki: 605
- Molecule: "Nc1nc(-c2ccc(NC(=O)CCNCCc3ccc(S(N)(=O)=O)cc3)cc2)cn2c(=O)n(-c3ccccc3)nc12"
  Units of measure: "nM"
  Ki: 1030

Need Ki for each of these molecules.
1. Nc1nc(/N=N/NC(=O)Nc2ccc(Cl)cc2)nc2c1ncn2[C@@H]1O[C@H](CO)[C@@H](O)[C@H]1O
2. Nc1cccc2c1nc(NC(=O)c1ccccc1)c1nn(-c3ccccc3)c(=O)n12
3. OC[C@H]1O[C@@H](n2cnc3c(NCc4cccnc4)ncnc32)[C@H](O)[C@@H]1O
4. CCN(C(C)=O)c1ccc(OC)c2nc(NC(=O)c3ccc(C#N)cc3)sc12

Response:
[15, 98, 42, 71]

Give me Ki for each of these molecules, listed below.
1. CCCNc1nc(C#Cc2ccc(Cl)s2)nc2c1ncn2[C@@H]1O[C@H](C(=O)NC)[C@@H](O)[C@H]1O
2. CCc1nc2c(=O)n(Cc3ccccc3)nc(-c3ccncc3)c2c2cc(-c3ccccc3)nn12
3. COc1cccc(CCNc2nc(N)c3nc(-c4ccco4)sc3n2)c1
4. CCN(C(C)=O)c1ccc(OC)c2nc(NC(=O)c3ccc(-n4ccnc4)cc3)sc12
5. Cn1c(=O)[nH]c2nc(-c3ccco3)c(-c3ccncn3)cc21
6. O=C(Nc1nc(-c2ccccc2)c(-c2ncon2)s1)c1ccccc1

Response:
1. 1160
2. 71.8
3. 0.92
4. 150
5. 2440
6. 300
